system: L1210 leukemia ip in BDF1 mice, survival T/C; assay: NCI In Vivo Anticancer Drug Screen. Data for tumor model L1210 Leukemia (intraperitoneal) in B6D2F1 (BDF1) mice; conditions: endpoint: mean survival time; dose: 50.0 mg/kg/injection; schedule: Q01DX001 (ip); vehicle: saline; higher = longer survival
Inconclusive results and toxic doses are left out. Peptide text beside a SMILES is read from it.
propertyName: T/C

{"molecule": "CC(=O)OCC1OC(n2cnc3c(N)ncnc32)C(OC(C)=O)C1OC(C)=O (stereo unspecified)", "propertyName": "T/C", "recordedResult": "100 % of control"}
{"molecule": "CC(NC(=O)C(CCC(=O)O)NC(=O)C(N)C(C)C)C(=O)NCC(=O)NC(C(=O)NC(CCC(=O)O)C(=O)NC(C)C(=O)NCC(=O)NCC(=O)O)C(C)C (stereo unspecified) (H-VEAGVEAGG-OH; configuration not given here)", "propertyName": "T/C", "recordedResult": "93 % of control"}
{"molecule": "O=C(/C=C(\\S)c1ccccc1)c1ccccc1", "propertyName": "T/C", "recordedResult": "101 % of control"}
{"molecule": "CN(C)c1ccc(/C=C/c2ccnc3ccccc23)cc1", "propertyName": "T/C", "recordedResult": "101 % of control"}
{"molecule": "Nc1nc(CO)c(CCCCc2ccccc2)c(=O)[nH]1", "propertyName": "T/C", "recordedResult": "101 % of control"}
{"molecule": "CC(=O)NC1CCC(C)CC1 (stereo unspecified)", "propertyName": "T/C", "recordedResult": "109 % of control"}
{"molecule": "CC1(C)SC2C(NC(=O)C(C(=O)O)c3ccccc3)C(=O)N2C1C(=O)O (stereo unspecified)", "propertyName": "T/C", "recordedResult": "107 % of control"}
{"molecule": "CC(Br)CCON1C(=O)c2ccccc2C1=O (stereo unspecified)", "propertyName": "T/C", "recordedResult": "112 % of control"}
{"molecule": "Cc1cc([N+](=O)[O-])cc(C)c1N=CN(C)C", "propertyName": "T/C", "recordedResult": "107 % of control"}
{"molecule": "Cc1ccc(O)c(N=O)c1.[Cu+2]", "propertyName": "T/C", "recordedResult": "97 % of control"}
{"molecule": "COc1nc(=O)n(C2OC(CO)C(O)C2O)cc1F (stereo unspecified)", "propertyName": "T/C", "recordedResult": "95 % of control"}

====

Reported T/C values follow for various compounds
test system: L1210 leukemia ip in BDF1 mice, survival T/C; experiment: NCI In Vivo Anticancer Drug Screen. Data for tumor model L1210 Leukemia (intraperitoneal) in B6D2F1 (BDF1) mice; conditions: endpoint: mean survival time; dose: 200.0 mg/kg/injection; schedule: Q04DX003 (ip); vehicle: Klucel (hydroxypropylcellulose) (HPC); higher = longer survival
Inconclusive results and toxic doses are left out.
propertyName: T/C

{"compound": "O=C(O)CCn1ccc2ccccc21", "recordedResult": "97 % of control"}
{"compound": "Cc1ccc2c(c1)C1CCC3(CC1OC2(C)C)OC(C)(C)c1cc(C)ccc13 (configuration not stated)", "recordedResult": "95 % of control"}
{"compound": "O=C(COc1ccc(Cl)cc1)Nc1ccccc1F", "recordedResult": "88 % of control"}
{"compound": "Nc1nc2nc(N=Nc3ccc(S(=O)(=O)N(CCCl)CCCl)cc3)[nH]c2c(=O)[nH]1", "recordedResult": "87 % of control"}
{"compound": "CC(=O)OCC1OC(OC(C)=O)C(NC(=O)N(C)c2ccccc2)C(OC(C)=O)C1OC(C)=O (configuration not stated)", "recordedResult": "105 % of control"}
{"compound": "CC1(C)CCC2(C)CC=C3OC(=O)CCC3(C)C2C1 (configuration not stated)", "recordedResult": "98 % of control"}
{"compound": "CC(=O)Oc1c2ccccc2c(OC(C)=O)c2[nH]c(-c3ccccc3)cc12", "recordedResult": "93 % of control"}
{"compound": "NC(=O)C#CC(N)=O", "recordedResult": "97 % of control"}
{"compound": "c1ccc(C[Si](c2ccccc2)c2ccccc2)cc1", "recordedResult": "100 % of control"}
{"compound": "Nc1c(Cl)cc(Cl)c2ccc([N+](=O)[O-])cc12", "recordedResult": "93 % of control"}
{"compound": "O=C(O)C1C(c2ccccc2)=C1c1ccc(Br)cc1 (configuration not stated)", "recordedResult": "102 % of control"}
{"compound": "COc1ccc(NC(=O)Oc2cccc(OC(=O)c3ccccc3)c2)cc1", "recordedResult": "98 % of control"}
